target: Epidermal Growth Factor Receptor (EGFR), extracellular domain (EGFR-ECD) (Homo sapiens); construct: full-length EGFR in DiscoverX PathHunter enzyme-complementation cells, EGF-stimulated; experiment: cell-based; set-up: DiscoverX PathHunter EGFR dimerization/activation assay, chemiluminescence
Sequence (P00533 25-1210): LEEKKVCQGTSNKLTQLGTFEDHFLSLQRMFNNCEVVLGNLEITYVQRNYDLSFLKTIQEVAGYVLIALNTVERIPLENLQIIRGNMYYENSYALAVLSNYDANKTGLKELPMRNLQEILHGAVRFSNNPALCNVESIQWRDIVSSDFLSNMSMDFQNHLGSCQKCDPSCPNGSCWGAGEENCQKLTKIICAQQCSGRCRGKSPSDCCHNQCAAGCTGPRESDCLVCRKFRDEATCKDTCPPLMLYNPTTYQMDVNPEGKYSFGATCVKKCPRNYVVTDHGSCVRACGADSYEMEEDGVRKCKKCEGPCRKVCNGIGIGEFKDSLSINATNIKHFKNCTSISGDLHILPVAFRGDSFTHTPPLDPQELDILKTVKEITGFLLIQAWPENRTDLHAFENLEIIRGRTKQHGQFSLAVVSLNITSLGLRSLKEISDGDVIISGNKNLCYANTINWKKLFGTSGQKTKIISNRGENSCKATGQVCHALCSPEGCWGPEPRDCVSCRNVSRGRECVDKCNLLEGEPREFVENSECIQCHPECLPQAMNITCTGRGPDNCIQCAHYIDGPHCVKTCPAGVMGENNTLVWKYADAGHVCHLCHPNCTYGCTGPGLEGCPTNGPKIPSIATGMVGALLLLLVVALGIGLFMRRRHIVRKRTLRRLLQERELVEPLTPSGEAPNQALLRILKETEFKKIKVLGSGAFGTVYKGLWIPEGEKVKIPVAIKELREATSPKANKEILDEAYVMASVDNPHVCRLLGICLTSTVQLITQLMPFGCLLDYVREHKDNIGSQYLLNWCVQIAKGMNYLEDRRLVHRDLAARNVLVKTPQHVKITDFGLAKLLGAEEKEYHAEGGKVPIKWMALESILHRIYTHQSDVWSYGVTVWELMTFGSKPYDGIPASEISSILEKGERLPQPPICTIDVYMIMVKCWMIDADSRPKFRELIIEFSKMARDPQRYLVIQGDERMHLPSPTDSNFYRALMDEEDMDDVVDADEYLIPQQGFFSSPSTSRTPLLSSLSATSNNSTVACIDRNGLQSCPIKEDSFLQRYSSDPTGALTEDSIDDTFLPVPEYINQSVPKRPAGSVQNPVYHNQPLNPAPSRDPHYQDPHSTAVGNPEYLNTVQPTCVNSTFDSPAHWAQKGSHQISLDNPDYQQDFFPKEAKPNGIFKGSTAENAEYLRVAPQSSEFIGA
readoutType: inhibition at 50 µM (%)
Form entry: value (%) — number only.

The examples below pair each entry with its known result.
O=C(O)c1ccc(-c2ccc(-c3ccccc3)cc2O)cc1 : 0
COc1ccc2c(C)c(CCC(=O)Nc3ccc(C(=O)O)cc3)c(=O)oc2c1C : 0
CCc1cnc(Oc2cccc(NC(=S)NC(=O)c3ccccc3)c2)nc1 : 22
O=C(CCN1CCOCC1)Nc1ccc(NC(=O)CCN2CCOCC2)c2c1C(=O)c1ccccc1C2=O : 30

Ask | Please look at this compound and report its inhibition at 50 µM: CC(=O)Nc1ccc(C=C2N=C(c3ccc([N+](=O)[O-])cc3O)OC2=O)cc1
Reply | 28
